Reported GI50 values for the following molecules.
# System: HCT-116 colon
# METHOD SUMMARY: NCI tumour cell line growth inhibition, 48 h
TEST READOUT: GI50

1. COc1cc(Cc2c(C)cc(OC)c3[nH]c4ccccc4c23)cc2c1[nH]c1ccccc12 = 9.18 µM
2. CC(C)=Cc1cc(C)c2ccc(C)c3c2c1C(C)=C(O)C3=O = 17.7 µM
3. CC(C)(C)c1ccc(C2CC(=O)C3=C(C2)Nc2ccccc2N(C(=O)c2ccccc2Cl)C3c2ccc(F)cc2)cc1 (stereo unspecified) = > 100 µM
4. Cc1ccc(N2C(=O)C3CSCN3C2=O)cc1 (stereo unspecified) = > 100 µM
5. COc1cc2nc(N3CCC[C@H](NC4=CC(=O)c5ccccc5C4=O)C3)nc(N)c2cc1OC = 1.64 µM
6. O=C(O)COc1ccc(OCC(=O)O)cc1 = 0.612 µM

---

# Tested on: MCF7 breast
# METHOD SUMMARY: NCI tumour cell line growth inhibition, 48 h
Reported TGI values for the following molecules.
TEST READOUT: TGI

1) Cc1ccc2oc(=O)c3c(O)c4cccc(OC5OC(C)C6O[C@@H](c7ccccc7)OC6C5OC5OC(C)C(O)C(O)C5O)c4c4oc(=O)c1c2c34 (stereo not given in full) = 2.48 µM
2) O=c1cc(N2CCOCC2)n2c(ccc3ccccc32)n1 = > 100 µM
3) Cc1cc(S(=O)(=O)Nc2nc3cscc3c(=O)n2N)c(S)cc1Cl = > 100 µM
4) CCN(CC)CCCNCc1cc(-c2ccccc2)nc2cc(Cl)ccc12 = 4.06 µM
5) Cc1cc2c(c(C(=O)NCC(=O)O)c1)Oc1c(cc(C)cc1C(=O)NCC(=O)O)S2 = > 100 µM

---

# System: LXFL 529 NSCLC
# METHOD SUMMARY: NCI tumour cell line growth inhibition, 48 h
Reported TGI values for the following molecules.
TEST READOUT: TGI

1. CCCCNS(=O)(=O)c1ccc(-c2ccc3c(c2)-c2ccc(S(=O)(=O)NCCCC)cc2S3(=O)=O)cc1 = 33.9 µM
2. CC1=NN(c2ccccc2)C(=O)C12[C@H](c1ccccc1)C2(C#N)C#N (some centres undefined) = 3.89 µM
3. CCC(C)(O)c1cn(-c2ccc(Cl)cc2)nn1 (centres undefined) = > 100 µM
4. CC(C)N(C(=O)C12C3C4C5(C(=O)O)C(C1C35I)C42C(=O)O)C(C)C (centres undefined) = > 100 µM
5. CC1=C(CO)C(=O)O[C@@H]([C@@H](C)[C@H]2CC[C@H]3[C@@H]4C[C@H]5O[C@]56[C@@H](O)C=CC(=O)[C@]6(C)[C@H]4CC[C@]23C)C1 = 1.26 µM
6. COc1ccc(N2C(=O)[C@@H](N=[N+]=[N-])[C@@H]2[C@H]2COC(C)(C)O2)cc1 = > 100 µM
7. CS(=O)(=O)c1ccc(COP(N)(=O)N(CCCl)CCCl)cc1 (centres undefined) = > 100 µM
8. C/C=C(\NC(=O)C(CCCCN)NC(=O)C(C)NC(=O)C1CSC(C)C(NC(=O)C2CSCC(NC(=O)C(C)NC(=O)C(N)C(C)CC)C(=O)NC(CCCCN)C(=O)NC(Cc3ccccc3)C(=O)NC(CC(C)C)C(=O)N2)C(=O)N2CCCC2C(=O)NCC(=O)N1)C(=O)NCC(=O)NC1CSCC2NC(=O)C(Cc3ccc(O)cc3)NC(=O)C(CSC=CNC2=O)NC(=O)C(CC(N)=O)NC(=O)C(Cc2ccccc2)NC1=O (centres undefined) = > 100 µM
9. Cc1ccc(N2C(=O)/C(=C/c3ccc(N(CCC#N)CCC#N)cc3)N=C2COc2ccc(Cl)cc2Cl)cc1 = > 100 µM

---

# Tested on: EKVX NSCLC
# METHOD SUMMARY: NCI tumour cell line growth inhibition, 48 h
TEST READOUT: TGI

1. COC(=O)c1onc(C2OC(C)(C)OC2C(O)COC(c2ccccc2)(c2ccccc2)c2ccccc2)c1C(=O)OC (stereo unspecified) = > 100 µM
2. Cc1nc(NS(=O)(=O)c2ccc(NCN3C(=O)c4ccccc4C3=O)cc2)oc1C = > 100 µM
3. NC1CCCCC1NCCNC1CCCCC1N (stereo unspecified) = > 100 µM
4. Cc1c(Nc2nccc3cc(CN4CC[C@@H](O)C4)cnc23)cccc1-c1cccc(-c2nc3cc(CN4CC[C@@H](C(=O)O)C4)cc(C#N)c3o2)c1C = > 100 µM
5. Cc1cc2nc3ccccc3n2c2ccccc12 = > 10 µM
6. Clc1ccc(-c2nn3c(COc4cccc(OCc5nnc6sc(-c7ccc(Cl)cc7)nn56)c4)nnc3s2)cc1 = 56.8 µM
7. O=C1C(N2CCN(CCOCCO)CC2)=C(Cl)C(=O)c2ncccc21 = 35.1 µM
8. COc1ccc(CSC2=C(C#N)C(=O)NC3(CCCCC3)S2)cc1 = > 100 µM
9. Cc1cc2c(=O)c3ccc(Cl)cc3[nH]c2c(C(N)=O)c1C = > 100 µM
10. CCC[CH2][Sn]([CH2]CCC)([CH2]CCC)/[C](=C/[Si](C)(C)c1ccccc1)c1ccc2c(c1)OCO2 = 50.7 µM
11. COc1ccc(-n2c(N)c(C#N)c(C#N)c2-c2ccco2)cc1 = > 100 µM
12. CN1CCC(c2c(O)cc(O)c3c(=O)cc(-c4ccccc4Cl)oc23)C(O)C1 (stereo unspecified) = 0.135 µM
13. COc1cc2c(cc1OC)C(C(CBr)CBr)N(C1CCCC1)CC2 (stereo unspecified) = > 100 µM
14. C1CSC[C@H]2COC[C@@H](CSCCS1)S2 = > 100 µM
15. CC(c1ccccc1)n1cncc1C(=O)NN1CCN(C)CC1 (stereo unspecified) = > 10 µM
16. Nc1nc(Cl)nc2c1ncn2C1OC(CO)C(O)C1F (stereo unspecified) = > 100 µM
17. O=C1C=CC2(O[C@H](C3CCCCC3)[C@@H](C3CCCCC3)O2)C(SC(=O)c2ccccc2)C1 (stereo partly specified) = 12.7 µM
18. O=C(Nc1ccc(-n2cc(-c3ccncc3)c(-c3ccc(O)c(Cl)c3)n2)cc1)c1ccc(Cl)c(C(F)(F)F)c1 = > 50 µM
19. CC(C)(C)c1cc(OCc2nnc3sc(Cc4ccccc4)nn23)c(Cl)cc1OCc1nnc2sc(Cc3ccccc3)nn12 = > 100 µM
20. COc1cc(OC)c2c(=O)cc(-c3ccccc3OCc3ccccc3)oc2c1OC = 91.2 µM
21. O=C1N2CCC[C@H]2CS1(=O)=O = 44.4 µM

---

# System: PC-3 prostate
# METHOD SUMMARY: NCI tumour cell line growth inhibition, 48 h
TEST READOUT: TGI

1. O=C1C=CC2(O[C@H](C3CCCCC3)[C@@H](C3CCCCC3)O2)C(SC(=O)c2ccccc2)C1 (stereo partly drawn) = 7.43 µM
2. NC1=NC(SCc2ccccc2CCl)c2ncn(Cc3ccccc3CCl)c2N1 (stereo not drawn) = 3.52 µM
3. C1CSC[C@H]2COC[C@@H](CSCCS1)S2 = > 100 µM
4. CC(C)OP(=O)(OC(C)C)C(C(C)C)N(C)C(N)=NC#N (stereo not drawn) = > 100 µM
5. COc1cc2c3c(n(C)c(=O)c2cc1OC)-c1cc2c(cc1/C3=C\CCCCCBr)OCO2 = > 100 µM
6. CCOC(=O)CCc1cn2cc(Br)nc(OC)c2n1 = > 100 µM
7. O=C(O)CSC1=NNC2(C(=O)N1)c1ccccc1-c1ccccc12 = > 10 µM
8. Nc1ccc2c(=O)cc(-c3ccc(Br)s3)[nH]c2n1 = > 100 µM

---

Reported TGI values for the following molecules.
# Tested on: TK-10 renal
# METHOD SUMMARY: NCI tumour cell line growth inhibition, 48 h
TEST READOUT: TGI

1) COc1cc2nc(N3CCC[C@H](NC4=CC(=O)c5ccccc5C4=O)C3)nc(N)c2cc1OC = 4.12 µM
2) C=C(C(=O)OC)[C@@H]1CC2OC1C(=O)C(C)CCC/C(C)=C/CC[C@@]2(C)O (some centres undefined) = 71.1 µM
3) CCOC(=O)CCc1cn2cc(Br)nc(OC)c2n1 = > 100 µM
4) Cc1nc(C)c(N2CCN(CN)CC2)c(=O)[nH]1 = > 100 µM
5) COC1=C(OC)C(=O)C(C/C=C(\C)CC/C=C(\C)CC/C=C(\C)CC/C=C(\C)CC/C=C(\C)CC/C=C(\C)CC/C=C(\C)CC/C=C(\C)CC/C=C(\C)CCC=C(C)C)=C(C)C1=O = > 100 µM
6) CC(C)=Cc1cc(CCC/C(C)=C/Cc2c(O)cc(C)c(C(=O)O)c2O)co1 = > 100 µM
7) O=C1NC(=O)C(=Cc2cn(Cc3ccccc3)c3ccccc23)C(=O)N1 = 8.58 µM
8) COC(=O)CCC(=O)NC1=C(Nc2ccccc2)C(=O)c2ccccc2C1=O = 41.6 µM
9) CC(C)=Cc1cc(C)c2ccc(C)c3c2c1C(C)=C(O)C3=O = > 100 µM
